B1: library; numbered along this chain (parent)
chain: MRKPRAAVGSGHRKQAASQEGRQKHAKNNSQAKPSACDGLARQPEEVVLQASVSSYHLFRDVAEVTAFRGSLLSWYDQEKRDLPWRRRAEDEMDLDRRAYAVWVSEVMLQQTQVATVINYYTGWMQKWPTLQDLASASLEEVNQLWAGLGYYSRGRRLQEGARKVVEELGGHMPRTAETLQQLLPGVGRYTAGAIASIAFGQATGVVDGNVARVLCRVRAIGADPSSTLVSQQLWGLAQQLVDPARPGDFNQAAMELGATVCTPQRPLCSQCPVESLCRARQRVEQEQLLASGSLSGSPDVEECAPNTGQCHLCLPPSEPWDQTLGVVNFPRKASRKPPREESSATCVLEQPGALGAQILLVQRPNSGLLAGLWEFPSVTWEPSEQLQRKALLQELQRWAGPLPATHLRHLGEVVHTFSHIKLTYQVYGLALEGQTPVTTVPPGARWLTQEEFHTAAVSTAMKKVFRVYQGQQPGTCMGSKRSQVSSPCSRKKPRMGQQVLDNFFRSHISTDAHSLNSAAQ

- Variants of: B1
- assayNotes: 8OG:A repair function score (normalized; synonymous = 0, nonsense = -1) (normalized log-likelihood score); higher = more repair activity (WT-like);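 further: cells sorted at 72 h after reporter transfection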
- measurementConditions: with 8OG:A DNA repair reporter (GFP) in HEK-293 MUTYH KO cells
Tag: y if measured 8OG:A repair function score is not below -0.2, n if it is.

Completed entries (count: 3):
{"mutationDescriptor": "H172K", "groupLabel": "y"}
{"mutationDescriptor": "W321C", "groupLabel": "n"}
{"mutationDescriptor": "V379Y", "groupLabel": "n"}

## Task Decide: 8OG:A repair function score of V206P >= -0.2?
## Result n

## Task Decide: 8OG:A repair function score of A162L >= -0.2?
## Result n

## Task Decide: 8OG:A repair function score of V114E >= -0.2?
## Result n

## Task Decide: 8OG:A repair function score of R219P >= -0.2?
## Result n

## Task Decide: 8OG:A repair function score of R163E >= -0.2?
## Result n

## Task Decide: 8OG:A repair function score of R279E >= -0.2?
## Result n

## Task Decide: 8OG:A repair function score of E92C >= -0.2?
## Result y

## Task Decide: 8OG:A repair function score of Y100C >= -0.2?
## Result n

## Task Decide: 8OG:A repair function score of L289E >= -0.2?
## Result y
